- ASSAY OVERVIEW: pKa value was determined spectrophotometrically in aqueous solution.
- Format: physicochemical
REPORTED PROPERTY: pKa
# respond with the number and nothing more

// lookup pKa for `CN(C)CCNC(=O)c1cccc2c(N)c3cccc(-c4ccccc4)c3nc12`
7.5

* * *

- ASSAY OVERVIEW: Lipophilicity is expressed in Rm
- Type: physicochemical
- ASSAY SETUP: chromatographic, AMSA standard
I'd appreciate it if you could supply Rm values for the items below.
# respond with the number and nothing more

// lookup Rm for `CN(C)CCNC(=O)c1cccc2c(N)c3cccc(Cl)c3nc12`
-1.03

// lookup Rm for `CN(C)CCNC(=O)c1cccc2c(N)c3cccc(-c4ccccc4)c3nc12`
-0.57

// lookup Rm for `CN(C)CCNC(=O)c1cccc2c(N)c3cccc(N)c3nc12`
-1.1

* * *

- ASSAY OVERVIEW: pKa values were determined spectrophotometrically in aqueous solution.
- Assay type: physicochemical
Decide by pKa: equal to or exceeding 7 means Y, less means N.

Answer whether pKa of `CN(C)CCNC(=O)c1cccc2c(N)c3cc(Cl)ccc3nc12` is greater than or equal to 7.
Y

Answer whether pKa of `CN(C)CCNC(=O)c1cccc2c(N)c3cc(F)ccc3nc12` is greater than or equal to 7.
Y

Answer whether pKa of `CN(C)CCNC(=O)c1cccc2c(N)c3cccc(S(C)(=O)=O)c3nc12` is greater than or equal to 7.
N

Answer whether pKa of `COc1cccc2c(N)c3cccc(C(=O)NCCN(C)C)c3nc12` is greater than or equal to 7.
Y

Answer whether pKa of `CN(C)CCNC(=O)c1cccc2c(N)c3cccc(C#N)c3nc12` is greater than or equal to 7.
N

Answer whether pKa of `CN(C)CCNC(=O)c1cccc2c(N)c3cccc([N+](=O)[O-])c3nc12` is greater than or equal to 7.
N

Answer whether pKa of `Cc1cccc2c(N)c3cccc(C(=O)NCCN(C)C)c3nc12` is greater than or equal to 7.
Y

Answer whether pKa of `COc1ccc2nc3c(C(=O)NCCN(C)C)cccc3c(N)c2c1` is greater than or equal to 7.
Y

Answer whether pKa of `CN(C)CCNC(=O)c1cccc2c(N)c3ccccc3nc12` is greater than or equal to 7.
Y

Answer whether pKa of `CN(C)CCNC(=O)c1cccc2c(N)c3cccc(Br)c3nc12` is greater than or equal to 7.
N

Answer whether pKa of `CN(C)CCNC(=O)c1cccc2c(N)c3cc(-c4ccccc4)ccc3nc12` is greater than or equal to 7.
Y

Answer whether pKa of `CN(C)CCNC(=O)c1cccc2c(N)c3cccc(N)c3nc12` is greater than or equal to 7.
Y

Answer whether pKa of `CN(C)CCNC(=O)c1cccc2c(N)c3cccc(C(F)(F)F)c3nc12` is greater than or equal to 7.
N

* * *

- ASSAY OVERVIEW: Lipophilicity is expressed in Rm
- Type: physicochemical
- ASSAY SETUP: chromatographic, AMSA standard
Rm vs -1: less than gives true (1); not less than gives false (0).

Does the reported Rm of the following compound sit strictly below -1? `CN(C)CCNC(=O)c1cccc2c(N)c3ccccc3nc12`
true (1)

Does the reported Rm of the following compound sit strictly below -1? `CN(C)CCNC(=O)c1cccc2c(N)c3cccc(S(C)(=O)=O)c3nc12`
true (1)

Does the reported Rm of the following compound sit strictly below -1? `COc1cccc2c(N)c3cccc(C(=O)NCCN(C)C)c3nc12`
true (1)

Does the reported Rm of the following compound sit strictly below -1? `COc1ccc2nc3c(C(=O)NCCN(C)C)cccc3c(N)c2c1`
false (0)

Does the reported Rm of the following compound sit strictly below -1? `CN(C)CCNC(=O)c1cccc2c(N)c3cccc(C(F)(F)F)c3nc12`
false (0)
